Known cell viability, A375 GP, 10μΜ of a selection of molecules
test system: A375-GP cells (Dabrafenib-resistant); assay: Kinase inhibitor library screening, PrestoBlue cell viability, 1 or 10 μM, 72 h; conditions: A375 GP, 10μΜ, 72 h; in %
Give the figure only, with no unit attached.

# annotated cases, reported cell viability, A375 GP, 10μΜ shown
| MOLECULE | cell viability, A375 GP, 10μΜ |
| --- | --- |
| CN(C)Cc1cccc(N/C(=C2\C(=O)Nc3cc(C(=O)N(C)C)ccc32)c2ccccc2)c1 | 79.8 |
| C#Cc1cccc(Nc2ncnc3cc(OCCOC)c(OCCO)cc23)c1 [Desmethyl Erlotinib (CP-473420)] | 65.7 |
| Nc1cccc(-c2cc3c(Oc4cccc(O)c4)ncnc3[nH]2)c1 | 41.9 |

Query block: Look up cell viability, A375 GP, 10μΜ: O=c1cc(N2CCOCC2)oc2c(-c3cccc4c3sc3ccccc34)cccc12
Result block: 47.4

Query block: Consider the molecule shown here: CCC[C@H](NC(=O)/C(C#N)=C/c1cccc(Br)n1)c1ccccc1 [WP1130, reference compound] What is its recorded cell viability, A375 GP, 10μΜ?
Result block: 1.1

Query block: Dear colleague, I am looking for the recorded cell viability, A375 GP, 10μΜ of the following molecule: COc1cc2ncnc(Nc3cccc(Br)c3)c2cc1OC.Cl [PD153035 HCl]
Result block: 105.2

Query block: I would be grateful if you could share the reported cell viability, A375 GP, 10μΜ for N#C/C(=C\c1ccc(O)c(O)c1)C(=O)NCc1ccccc1 .
Result block: 88.5

Query block: Fill in: cell viability, A375 GP, 10μΜ of COc1cc2ncnc(Nc3ccc(O)c(Br)c3)c2cc1OC is ___
Result block: 85.7

Query block: Please give the measured cell viability, A375 GP, 10μΜ for this molecule: C=CC(=O)Nc1cc2c(Nc3ccc(F)c(Cl)c3)ncnc2cc1OCCCN1CCOCC1
Result block: 23.3

Query block: Requested read-out: cell viability, A375 GP, 10μΜ. Entry: CNC(=O)c1ccccc1Nc1nc(Nc2ccc(N3CCOCC3)cc2OC)ncc1Cl
Result block: 16.3

Query block: Data request, read-out cell viability, A375 GP, 10μΜ, for CN1CCN(c2cccc(Nc3nc4c(-c5ccc(S(C)(=O)=O)cc5)cccn4n3)c2)CC1
Result block: 77.6

Query block: Tell me the measured cell viability, A375 GP, 10μΜ of Cc1c(NC(=O)OC[C@@H]2COCCN2)cn2ncnc(Nc3ccc4c(cnn4Cc4cccc(F)c4)c3)c12 , please.
Result block: 84.2

Query block: Given the entry COc1cc2ncnc(Nc3cccc(Cl)c3)c2cc1OC , report its measured cell viability, A375 GP, 10μΜ.
Result block: 90.4

Query block: cell viability, A375 GP, 10μΜ for Cc1cnc(Nc2ccc(OCCN3CCCC3)cc2)nc1Nc1cccc(S(=O)(=O)NC(C)(C)C)c1 [TG101348 (SAR302503)] ?
Result block: 15.0

Query block: Name the reported cell viability, A375 GP, 10μΜ value associated with the molecule C=CC(=O)Nc1cccc(Sc2nc(Nc3ccc(N4CCN(C)CC4)cc3)ncc2Cl)c1
Result block: 1.6

Query block: Could you tell me which cell viability, A375 GP, 10μΜ is on file for CC(C)(C)c1cc(C=C(C#N)C#N)cc(Br)c1O ?
Result block: 86.9

Query block: // lookup cell viability, A375 GP, 10μΜ for CCN1CCN(Cc2ccc(-c3cc4c(N[C@H](C)c5ccccc5)ncnc4[nH]3)cc2)CC1
Result block: 49.2
